# maps each entry to its Kd
Study system: IgG (Gammanorm)
Test summary: SPR (Biacore), variant amine-coupled to CM5 chip, Gammanorm as analyte, steady state affinity fit

{"columns": ["Binder", "Kd / nM"],
 "data": [
  ["Protein L variant pAM253 (domain B4-2; H10, H45, Y60) (protein) PKEEVTIKAHLIYADGKTQTAEFKGTFAEATAEAYRYADLLAKEHGKYTADLEDGGYTIYIRFAGKKVDEKPEE", 54],
  ["Protein L variant pAM262 (domain D1-2; H10, H45, Y60) (protein) PKEEVTIKAHLIFADGKTQTAEFKGTFEEATAEAYRYADLLAKVHGEYTADLEDGGYTIYIKFAGKEQPGEN", 48],
  ["Protein L variant pAM243 (domain C2-1; H10, H45, Q60) (protein) PKEEVTIKVHLIFADGKTQTAEFKGTFEEATAKAYAYADLLAKEHGEYTADLEDGGNTIQIKFAGKETPETPEE", 83],
  ["Protein L variant pAM251 (domain B2-2; H10, H45, Y60) (protein) PKEEVTIKAHLIYADGKTQTAEFKGTFEEAAAEAYRYADALKKDHGEYTVDVADKGYTLYIKFAGKEKTPEE", 55],
  ["Protein L variant pAM252 (domain B3-2; H10, H45, Y60) (protein) PKEEVTIKAHLIYADGKTQTAEFKGTFEEATAEAYRYADLLAKEHGKYTVDVADKGYTLYIKFAGKEKTPEE", 69],
  ["Protein L variant pAM238 (domain B3-1; H10, H45, Q60) (protein) PKEEVTIKAHLIYADGKTQTAEFKGTFEEATAEAYRYADLLAKEHGKYTVDVADKGYTLQIKFAGKEKTPEE", 82],
  ["Protein L variant pAM249 (domain B1-2; H10, H45, Y60) (protein) SEEEVTIKAHLIFANGSTQTAEFKGTFEKATSEAYAYADTLKKDHGEYTVDVADKGYTLYIKFAGKEKTPEE", 79],
  ["Protein L variant pAM259 (domain C3-2; H10, H45, Y60) (protein) PKEEVTIKVHLIFADGKIQTAEFKGTFEEATAKAYAYANLLAKEHGEYTADLEDGGNTIYIKFAGKETPETPEE", 120],
  ["Protein L variant pAM261 (domain C4-2; H10, H45, Y60) (protein) PKEEVTIKVHLIFADGKTQTAEFKGTFEEATAEAYRYADLLAKVHGEYTADLEDGGYTIYIKFAGKEQPGENPG", 43],
  ["Protein L variant pAM257 (domain C2-2; H10, H45, Y60) (protein) PKEEVTIKVHLIFADGKTQTAEFKGTFEEATAKAYAYADLLAKEHGEYTADLEDGGNTIYIKFAGKETPETPEE", 98],
  ["Protein L variant pAM258 (domain C2b-2; H10, H45, Y60) (protein) PKEEVTIKVHLIFADGKTQTAEFKGTFEEATAKAYAYADLLAKEHGEYTADLEDGGYTIYIKFAGKETPETPEE", 45],
  ["Protein L variant pAM246 (domain C3b-1; H10, H45, Q60) (protein) PKEEVTIKVHLIFADGKIQTAEFKGTFEEATAKAYAYADLLAKEHGEYTADLEDGGYTIQIKFAGKETPETPEE", 49],
  ["Protein L variant pAM248 (domain D1-1; H10, H45, Q60) (protein) PKEEVTIKAHLIFADGKTQTAEFKGTFEEATAEAYRYADLLAKVHGEYTADLEDGGYTIQIKFAGKEQPGEN", 56]
]}
